- Tested on: HIVIIIB
- test summary: HIV-1 replication in MT2 cell line without human serum (RT activity in supernatant)
- Assay type: cell-based
- measurement context: Human immunodeficiency virus 1, 120 h, MT2 cells, day 5 after infection, average if tested more than once, read-out: MT2 (HIVIIIB) IC50 range
So I've got a bunch of molecules here, and I need their IC50 values.

C=C(C)[C@@H]1CC[C@]2(NC(=O)C3CC3)CC[C@]3(C)[C@H](CC[C@@H]4[C@@]5(C)CC[C@H](OC(=O)CC(C)(C)C(=O)O)C(C)(C)[C@@H]5CC[C@]43C)[C@@H]12 | < 199 nM

// next item, IC50 requested
Lookup: For the molecule shown here, C=C(C)[C@@H]1CC[C@]2(NC(=O)N3CCN(C)CC3)CC[C@]3(C)[C@H](CC[C@@H]4[C@@]5(C)CC[C@H](OC(=O)CC(C)(C)C(=O)O)C(C)(C)[C@@H]5CC[C@]43C)[C@@H]12 , give the reported IC50.
Found: < 199 nM
